# Tested on: SF-295 CNS
# Protocol notes: NCI tumour cell line growth inhibition, 48 h; in the data active = GI50 below about 0.43 µM; inactive = the rest
Outcomes you can answer with include only these: active, inactive

Recorded results for 2 compounds are shown here.
1. O=C(C(=O)c1cccnc1)c1cccnc1    inactive
2. CCOC(=O)Nc1cc2c(c(N)n1)N=C(c1ccccc1)CN2    active

Shift focus to the following entry.
Would you mind telling me which call this test gave NS(=O)(=O)c1ccc(-n2nc(-c3ccccc3)cc2-c2cc(O)ccc2O)cc1 ?
inactive

* * *

# Test system: 786-0 renal
# Protocol notes: NCI tumour cell line growth inhibition, 48 h
Measured attribute: GI50

Observe how each entry below is paired with its result.
1) Cc1cnc(-c2ccc(-c3ccc(NC(=O)Nc4cccc(C(F)(F)F)c4)cc3F)c3c2C(=O)NC3)[nH]1    16.8 µM
2) CC[C@@]1(O)C(=O)OCc2c1cc1n(c2=O)Cc2cc3cccc(N)c3nc2-1    2.38 µM
3) CCOP(=O)(OCC)C(NC(c1ccccc1)c1ccccc1)c1ccsc1 (centres undefined)    17.2 µM

Continue with the next compound.
Quick one: GI50 of CN1CCN(C(=O)[C@@]2(C)CC[C@]3(C)CC[C@]4(C)C(=CC[C@@H]5[C@@]6(C)CC[C@H](OC(=O)c7cccnc7)C(C)(C)[C@@H]6CC[C@]54C)[C@@H]3C2)CC1 ?
1.75 µM
